experiment: Solubility in EtOAc/heptane mixtures by HPLC; type: physicochemical; settings: organic solvent or mixture, thermodynamic from solid; EtOAc/heptane 40:60 (% v/v), 20° C.
Quantity: solubility (mg/mL)
Express your answer in mg/mL, writing the number without its unit.

(Q) Find the measured solubility of O=C1N[C@H](c2cncc(C#Cc3ccccc3)c2)[C@@H](c2ccccc2Cl)O1 [Compound 1] and report it.
(A) 11

----------
target: P-glycoprotein (P-gp) (Homo sapiens, UniProt P08183); assay: In vitro inhibition of human transporter P-gp; conditions: in vitro cell test system; read-out: IC50, inhibition of probe substrate transport via P-gp
Sequence (P08183 whole entry): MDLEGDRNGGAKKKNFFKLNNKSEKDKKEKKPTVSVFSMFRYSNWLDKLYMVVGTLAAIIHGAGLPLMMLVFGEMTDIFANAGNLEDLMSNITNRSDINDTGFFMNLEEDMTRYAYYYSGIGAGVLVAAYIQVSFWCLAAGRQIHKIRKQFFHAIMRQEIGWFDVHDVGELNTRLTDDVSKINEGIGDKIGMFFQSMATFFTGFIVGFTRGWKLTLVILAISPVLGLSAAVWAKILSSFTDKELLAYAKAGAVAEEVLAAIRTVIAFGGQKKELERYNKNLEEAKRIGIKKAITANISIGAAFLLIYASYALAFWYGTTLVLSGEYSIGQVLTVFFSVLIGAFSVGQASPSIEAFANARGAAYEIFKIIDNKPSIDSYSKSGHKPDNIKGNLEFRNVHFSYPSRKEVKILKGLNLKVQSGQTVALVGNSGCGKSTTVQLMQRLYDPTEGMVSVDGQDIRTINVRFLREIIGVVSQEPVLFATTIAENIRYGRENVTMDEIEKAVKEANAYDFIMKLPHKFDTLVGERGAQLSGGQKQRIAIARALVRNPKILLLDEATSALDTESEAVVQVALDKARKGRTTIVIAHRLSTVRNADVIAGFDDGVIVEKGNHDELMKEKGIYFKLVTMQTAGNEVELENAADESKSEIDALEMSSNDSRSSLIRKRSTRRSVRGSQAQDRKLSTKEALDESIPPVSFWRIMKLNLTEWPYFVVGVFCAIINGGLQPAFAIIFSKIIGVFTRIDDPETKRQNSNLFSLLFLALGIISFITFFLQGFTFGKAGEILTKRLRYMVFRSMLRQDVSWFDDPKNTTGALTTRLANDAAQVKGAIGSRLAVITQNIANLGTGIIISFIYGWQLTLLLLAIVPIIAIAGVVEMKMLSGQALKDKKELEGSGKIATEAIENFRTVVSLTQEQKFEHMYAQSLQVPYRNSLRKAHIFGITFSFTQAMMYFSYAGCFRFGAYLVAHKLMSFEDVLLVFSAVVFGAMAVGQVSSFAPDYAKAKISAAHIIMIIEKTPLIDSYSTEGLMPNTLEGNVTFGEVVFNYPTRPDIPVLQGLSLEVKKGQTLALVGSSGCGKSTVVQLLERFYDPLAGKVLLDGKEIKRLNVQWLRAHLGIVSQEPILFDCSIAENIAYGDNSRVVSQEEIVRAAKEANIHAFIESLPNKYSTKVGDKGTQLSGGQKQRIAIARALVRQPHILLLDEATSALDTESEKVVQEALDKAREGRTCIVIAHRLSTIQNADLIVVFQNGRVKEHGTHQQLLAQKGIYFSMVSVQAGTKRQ
Quantity: IC50 (µM)
Respond with the bare value in µM.

(Q) Look up and report IC50, with P-glycoprotein (P-gp) (Homo sapiens, UniProt P08183) as system, for O=C1N[C@H](c2cncc(C#Cc3ccccc3)c2)[C@@H](c2ccccc2Cl)O1 [Compound 1 Form A]
(A) 27.7

----------
molecular target: CYP3A4 (Homo sapiens); construct: purchased; assay: CYP450 reaction phenotyping in Supersomes, CYP3A4; assay type: in vitro ADME; details: human, Supersomes over-expressing human CYP3A4; Supersomes, CYP3A4
Sequence (P08684 whole entry): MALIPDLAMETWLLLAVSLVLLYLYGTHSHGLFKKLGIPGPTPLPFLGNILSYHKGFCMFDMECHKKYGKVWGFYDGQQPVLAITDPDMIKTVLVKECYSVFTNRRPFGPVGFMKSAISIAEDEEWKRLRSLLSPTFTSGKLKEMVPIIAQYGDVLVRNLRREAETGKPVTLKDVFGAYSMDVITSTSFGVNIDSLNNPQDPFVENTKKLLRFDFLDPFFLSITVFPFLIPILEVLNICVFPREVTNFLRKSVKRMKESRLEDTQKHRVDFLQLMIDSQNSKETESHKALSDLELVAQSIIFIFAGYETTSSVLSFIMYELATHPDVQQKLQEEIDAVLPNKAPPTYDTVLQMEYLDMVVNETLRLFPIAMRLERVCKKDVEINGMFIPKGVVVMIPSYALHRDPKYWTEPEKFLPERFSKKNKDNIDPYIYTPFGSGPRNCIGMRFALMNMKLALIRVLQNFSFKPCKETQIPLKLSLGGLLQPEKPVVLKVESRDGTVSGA
Quantity: half-life
I'd appreciate it if you included the unit after the number.

(Q) Specify reported half-life for the compound shown: O=C1N[C@H](c2cncc(C#Cc3ccccc3)c2)[C@@H](c2ccccc2Cl)O1 [Compound 1 Form A]
(A) 2.93 h

----------
assay: Approximate solubility (visual) in solvents; type: physicochemical; conditions: organic solvent or mixture, thermodynamic from solid; acetonitrile, 20° C.; read-out: Approx. solubility
Quantity: solubility

(Q) Entry `O=C1N[C@H](c2cncc(C#Cc3ccccc3)c2)[C@@H](c2ccccc2Cl)O1` needs its solubility filled in; supply it.
(A) 50 to 100 mg/mL

----------
biological target: CYP2D6 (Homo sapiens, UniProt P10635); construct: purchased; assay: CYP450 reaction phenotyping in Supersomes, CYP2D6; format: in vitro ADME; conditions: human, Supersomes over-expressing human CYP2D6; Supersomes, CYP2D6
Sequence (P10635 whole entry): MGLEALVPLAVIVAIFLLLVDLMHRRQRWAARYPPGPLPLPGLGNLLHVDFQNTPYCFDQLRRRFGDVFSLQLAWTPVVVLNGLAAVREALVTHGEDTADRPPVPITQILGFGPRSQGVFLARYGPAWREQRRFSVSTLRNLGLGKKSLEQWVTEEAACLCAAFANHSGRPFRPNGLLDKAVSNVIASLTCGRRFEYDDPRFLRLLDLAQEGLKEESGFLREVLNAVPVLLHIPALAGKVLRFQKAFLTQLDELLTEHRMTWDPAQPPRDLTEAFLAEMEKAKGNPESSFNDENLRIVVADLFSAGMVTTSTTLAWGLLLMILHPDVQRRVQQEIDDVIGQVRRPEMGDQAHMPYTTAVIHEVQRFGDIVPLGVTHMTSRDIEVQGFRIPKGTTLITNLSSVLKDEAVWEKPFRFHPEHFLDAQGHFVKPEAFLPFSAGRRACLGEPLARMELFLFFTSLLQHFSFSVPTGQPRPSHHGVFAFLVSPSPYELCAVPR
Quantity: half-life (min)
Please respond with the number in min and leave the unit unwritten.

(Q) Specify reported half-life for the compound shown: O=C1N[C@H](c2cncc(C#Cc3ccccc3)c2)[C@@H](c2ccccc2Cl)O1 [Compound 1 Form A]
(A) 14

----------
Assay: Approximate solubility (visual) in solvents
Assay type: physicochemical
Settings: organic solvent or mixture, thermodynamic from solid; dichloromethane, 20° C.; read-out: Approx. solubility
Description: The polymorph study protocol involved the use of a selection of solvents in which the solubility of Compound 1 was initially evaluated. Four typologies of experiments were then set up: temperature cycling, evaporative, long-term slurries and vapor diffusion. […] Approximate solubility (visual) of Compound 1 was assessed in a list of solvents selected based on class diversity including solvent/water mixtures (Table 5). […]
Quantity: solubility

(Q) Tell us which solubility value is on record for `O=C1N[C@H](c2cncc(C#Cc3ccccc3)c2)[C@@H](c2ccccc2Cl)O1`
(A) > 100 mg/mL

----------
molecular target: mGluR5 (Homo sapiens)
Sequence (P41594 21-1212): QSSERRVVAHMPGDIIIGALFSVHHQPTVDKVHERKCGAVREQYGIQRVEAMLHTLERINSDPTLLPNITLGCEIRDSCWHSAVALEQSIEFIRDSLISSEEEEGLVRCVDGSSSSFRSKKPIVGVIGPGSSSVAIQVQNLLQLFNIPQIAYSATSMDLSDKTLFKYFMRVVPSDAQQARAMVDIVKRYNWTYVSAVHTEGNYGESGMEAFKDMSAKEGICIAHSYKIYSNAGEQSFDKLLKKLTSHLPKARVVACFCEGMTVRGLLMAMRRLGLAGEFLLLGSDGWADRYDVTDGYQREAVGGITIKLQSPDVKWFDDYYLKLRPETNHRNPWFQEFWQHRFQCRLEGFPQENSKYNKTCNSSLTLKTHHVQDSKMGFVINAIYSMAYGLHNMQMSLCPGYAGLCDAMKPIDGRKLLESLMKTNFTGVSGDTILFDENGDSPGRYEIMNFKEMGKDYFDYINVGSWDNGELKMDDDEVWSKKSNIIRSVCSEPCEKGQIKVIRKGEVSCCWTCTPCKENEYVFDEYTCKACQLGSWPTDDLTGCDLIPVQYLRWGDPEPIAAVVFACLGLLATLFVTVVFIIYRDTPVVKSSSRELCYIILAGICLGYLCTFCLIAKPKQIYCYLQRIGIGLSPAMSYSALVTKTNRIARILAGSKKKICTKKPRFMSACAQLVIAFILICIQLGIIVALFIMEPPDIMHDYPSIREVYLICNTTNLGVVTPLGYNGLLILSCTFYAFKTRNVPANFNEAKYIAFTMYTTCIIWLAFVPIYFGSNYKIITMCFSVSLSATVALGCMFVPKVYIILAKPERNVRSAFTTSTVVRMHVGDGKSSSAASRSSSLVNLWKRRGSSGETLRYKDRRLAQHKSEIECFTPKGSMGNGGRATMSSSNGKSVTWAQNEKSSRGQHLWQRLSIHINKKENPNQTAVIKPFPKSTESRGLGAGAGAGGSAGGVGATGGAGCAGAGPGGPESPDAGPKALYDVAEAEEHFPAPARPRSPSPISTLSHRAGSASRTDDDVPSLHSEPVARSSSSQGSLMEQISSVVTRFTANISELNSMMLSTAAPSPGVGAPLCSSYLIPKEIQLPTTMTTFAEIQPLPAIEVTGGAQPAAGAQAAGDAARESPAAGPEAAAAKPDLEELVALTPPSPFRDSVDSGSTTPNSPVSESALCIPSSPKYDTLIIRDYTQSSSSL
Quantity: Ki
Units required after the number.

(Q) System mGluR5 (Homo sapiens). Read-out Ki. Item `O=C1N[C@H](c2cncc(C#Cc3ccccc3)c2)[C@@H](c2ccccc2Cl)O1` . Report value.
(A) 0.6 nM

----------
assay: Approximate solubility (visual) in solvents; assay type: physicochemical; settings: organic solvent or mixture, thermodynamic from solid; ethyl acetate, 20° C.; read-out: Approx. solubility
Quantity: solubility

(Q) Fill in solubility for record O=C1N[C@H](c2cncc(C#Cc3ccccc3)c2)[C@@H](c2ccccc2Cl)O1 [Compound 1]
(A) > 100 mg/mL

----------
assay: Solubility in EtOAc/heptane mixtures by HPLC; format: physicochemical; settings: organic solvent or mixture, thermodynamic from solid; EtOAc/heptane 60:40 (% v/v), 45° C.
Quantity: solubility
I'd appreciate it if you wrote the number followed by its unit.

(Q) Tell us which solubility value is on record for `O=C1N[C@H](c2cncc(C#Cc3ccccc3)c2)[C@@H](c2ccccc2Cl)O1`
(A) 61 mg/mL

----------
assay: in vivo; conditions: rat
Quantity: NOAEL at 28 days (mg/kg)
All answers are understood in mg/kg, so give the number only.

(Q) Dear colleague, please send me the reported NOAEL at 28 days for `O=C1N[C@H](c2cncc(C#Cc3ccccc3)c2)[C@@H](c2ccccc2Cl)O1` when you can.
(A) 15

----------
experiment: Approximate solubility (visual) in solvents; format: physicochemical; details: organic solvent or mixture, thermodynamic from solid; tetrahydrofuran (THF), 20° C.; read-out: Approx. solubility
Quantity: solubility

(Q) Return reported solubility. Input molecule: `O=C1N[C@H](c2cncc(C#Cc3ccccc3)c2)[C@@H](c2ccccc2Cl)O1`
(A) > 100 mg/mL

----------
assay: Intravenous and oral cross-over pharmacokinetic study; assay type: in vivo, male Sprague Dawley rats; conditions: Sprague Dawley, rat, plasma; male rats, IV 1 mg/kg
Quantity: half-life (h)
Give the quantity in h, number only.

(Q) Give the reported half-life for this compound. O=C1N[C@H](c2cncc(C#Cc3ccccc3)c2)[C@@H](c2ccccc2Cl)O1 [Compound 1]
(A) 4.49

----------
assay: Approximate solubility (visual) in solvents; type: physicochemical; conditions: organic solvent or mixture, thermodynamic from solid; 2-methyltetrahydrofuran (MeTHF), 20° C.; read-out: Approx. solubility
Quantity: solubility

(Q) Look up solubility of `O=C1N[C@H](c2cncc(C#Cc3ccccc3)c2)[C@@H](c2ccccc2Cl)O1` and report it.
(A) > 100 mg/mL

----------
test: Approximate solubility (visual) in solvents; format: physicochemical; settings: thermodynamic from solid; water, 20° C.; read-out: Approx. solubility
Quantity: solubility

(Q) Input `O=C1N[C@H](c2cncc(C#Cc3ccccc3)c2)[C@@H](c2ccccc2Cl)O1` , output reported solubility.
(A) < 2000 µg/mL

----------
test: Approximate solubility (visual) in solvents; assay type: physicochemical; settings: aqueous with cosolvent or surfactant or cyclodextrin, thermodynamic from solid; 2-propanol/water 50:50, 20° C.; read-out: Approx. solubility
Quantity: solubility

(Q) Tell me measured solubility for `O=C1N[C@H](c2cncc(C#Cc3ccccc3)c2)[C@@H](c2ccccc2Cl)O1` please.
(A) ~5000 µg/mL

----------
test: Approximate solubility (visual) in solvents; type: physicochemical; details: organic solvent or mixture, thermodynamic from solid; isopropyl alcohol (IPA), 20° C.; read-out: Approx. solubility
Quantity: solubility

(Q) Find the measured solubility of O=C1N[C@H](c2cncc(C#Cc3ccccc3)c2)[C@@H](c2ccccc2Cl)O1 [Compound 1] and report it.
(A) 25 to 30 mg/mL

----------
assay: Solubility in EtOAc/heptane mixtures by HPLC; assay type: physicochemical; conditions: organic solvent or mixture, thermodynamic from solid; EtOAc/heptane 90:10 (% v/v), 45° C.
Quantity: solubility

(Q) For `O=C1N[C@H](c2cncc(C#Cc3ccccc3)c2)[C@@H](c2ccccc2Cl)O1` , write its solubility.
(A) 177 mg/mL

----------
experiment: Solubility in EtOAc/heptane mixtures by HPLC; type: physicochemical; conditions: organic solvent or mixture, thermodynamic from solid; EtOAc/heptane 60:40 (% v/v), 20° C.
Quantity: solubility (mg/mL)
Could you give me the number in mg/mL? Just the number is fine.

(Q) Indicate its recorded solubility; the compound in question is `O=C1N[C@H](c2cncc(C#Cc3ccccc3)c2)[C@@H](c2ccccc2Cl)O1`
(A) 33

----------
assay: Solubility in EtOAc/heptane mixtures by HPLC; type: physicochemical; conditions: organic solvent or mixture, thermodynamic from solid; EtOAc/heptane 80:20 (% v/v), 45° C.
Quantity: solubility

(Q) Output solubility of `O=C1N[C@H](c2cncc(C#Cc3ccccc3)c2)[C@@H](c2ccccc2Cl)O1`
(A) 124 mg/mL

----------
experiment: Intravenous and oral cross-over pharmacokinetic study; format: in vivo, male Sprague Dawley rats; settings: Sprague Dawley, rat, plasma; male rats, IV 1 mg/kg, solution in 2.5% NMP + 1% Solutol HS15 in water
Quantity: Cmax (ng/mL)
Give the number; ng/mL is assumed, so skip it.

(Q) Tell us which Cmax value is on record for `O=C1N[C@H](c2cncc(C#Cc3ccccc3)c2)[C@@H](c2ccccc2Cl)O1`
(A) 595

----------
assay: Intravenous and oral cross-over pharmacokinetic study; assay type: in vivo, male Sprague Dawley rats; conditions: Sprague Dawley, rat, plasma; male rats, IV 1 mg/kg
Quantity: clearance (mL/min/kg)
Expressed in mL/min/kg, but write only the number.

(Q) Please give measured clearance of the following entry: `O=C1N[C@H](c2cncc(C#Cc3ccccc3)c2)[C@@H](c2ccccc2Cl)O1`
(A) 5.98

----------
test: Solubility in EtOAc/heptane mixtures by HPLC; type: physicochemical; details: organic solvent or mixture, thermodynamic from solid; EtOAc/heptane 100:0 (% v/v), 20° C.
Quantity: solubility (mg/mL)
Entry rule: numbers only, all in mg/mL.

(Q) Give solubility for the following compound: `O=C1N[C@H](c2cncc(C#Cc3ccccc3)c2)[C@@H](c2ccccc2Cl)O1`
(A) 115

----------
assay: Approximate solubility (visual) in solvents; assay type: physicochemical; settings: organic solvent or mixture, thermodynamic from solid; 2-propanol/water 90:10, 20° C.; read-out: Approx. solubility
Quantity: solubility

(Q) Supply solubility value. Item: `O=C1N[C@H](c2cncc(C#Cc3ccccc3)c2)[C@@H](c2ccccc2Cl)O1`
(A) 30 to 50 mg/mL
